# System tested: ALK tyrosine kinase receptor (Homo sapiens) (UniProt Q9UM73);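 note: values are mean percent inhibition of ALK, screened as part of the GSK PKIS panel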
# Sequence (Q9UM73 19-1620 limits assumed): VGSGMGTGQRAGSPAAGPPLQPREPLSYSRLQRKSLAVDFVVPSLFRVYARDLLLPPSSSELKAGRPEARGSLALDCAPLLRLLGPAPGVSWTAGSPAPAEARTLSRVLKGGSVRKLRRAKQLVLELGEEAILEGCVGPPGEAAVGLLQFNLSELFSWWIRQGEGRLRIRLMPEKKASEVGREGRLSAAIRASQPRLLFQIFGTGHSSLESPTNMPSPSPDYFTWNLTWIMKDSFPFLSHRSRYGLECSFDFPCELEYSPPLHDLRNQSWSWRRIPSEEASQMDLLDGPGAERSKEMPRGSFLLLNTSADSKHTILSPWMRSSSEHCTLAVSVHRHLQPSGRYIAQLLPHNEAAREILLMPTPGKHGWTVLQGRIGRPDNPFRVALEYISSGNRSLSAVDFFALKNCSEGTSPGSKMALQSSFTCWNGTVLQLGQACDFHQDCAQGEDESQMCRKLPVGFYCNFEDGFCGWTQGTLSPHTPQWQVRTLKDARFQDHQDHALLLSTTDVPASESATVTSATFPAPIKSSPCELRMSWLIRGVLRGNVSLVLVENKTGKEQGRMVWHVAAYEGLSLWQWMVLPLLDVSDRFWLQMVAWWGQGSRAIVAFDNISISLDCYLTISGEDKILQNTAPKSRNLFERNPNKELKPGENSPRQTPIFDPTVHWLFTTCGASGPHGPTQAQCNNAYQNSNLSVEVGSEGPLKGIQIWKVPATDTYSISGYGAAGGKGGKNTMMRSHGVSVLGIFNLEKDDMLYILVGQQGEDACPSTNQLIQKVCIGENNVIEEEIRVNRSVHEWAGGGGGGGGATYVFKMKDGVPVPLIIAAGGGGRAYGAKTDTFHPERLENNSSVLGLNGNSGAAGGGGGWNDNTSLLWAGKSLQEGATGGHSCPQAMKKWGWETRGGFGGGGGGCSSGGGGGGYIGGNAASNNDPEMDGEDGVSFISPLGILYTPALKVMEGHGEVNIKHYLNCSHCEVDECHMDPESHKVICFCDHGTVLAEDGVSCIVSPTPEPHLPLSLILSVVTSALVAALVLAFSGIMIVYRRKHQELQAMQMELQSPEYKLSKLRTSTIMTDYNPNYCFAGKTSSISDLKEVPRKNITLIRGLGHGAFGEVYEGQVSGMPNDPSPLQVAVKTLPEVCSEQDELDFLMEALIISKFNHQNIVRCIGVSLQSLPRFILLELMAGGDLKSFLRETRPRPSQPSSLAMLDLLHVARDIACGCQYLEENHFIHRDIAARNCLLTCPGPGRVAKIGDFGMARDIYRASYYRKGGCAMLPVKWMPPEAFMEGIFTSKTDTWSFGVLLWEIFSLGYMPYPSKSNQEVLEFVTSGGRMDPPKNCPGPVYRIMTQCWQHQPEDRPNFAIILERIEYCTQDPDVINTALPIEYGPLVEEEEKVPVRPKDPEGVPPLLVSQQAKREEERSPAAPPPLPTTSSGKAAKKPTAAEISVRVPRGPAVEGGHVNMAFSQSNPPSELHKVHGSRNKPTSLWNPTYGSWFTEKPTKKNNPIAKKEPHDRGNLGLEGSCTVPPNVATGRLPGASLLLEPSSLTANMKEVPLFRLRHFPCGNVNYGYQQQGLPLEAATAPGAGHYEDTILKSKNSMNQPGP
# Details: at 1 µM
inhibition by entry:
Numbers only; they are read as %.

Example results:
CCS(=O)(=O)c1ccc(OC)c(Nc2ncc(-c3cccc(C(C)=O)c3)o2)c1: 2.87
CS(=O)(=O)CCNCc1ccoc1-c1ccc2ncnc(Nc3ccc(OCc4ccccc4)cc3)c2c1: 1.21
Fc1cccc(COc2ccc(Nc3ncncc3C#Cc3ccccc3)cc2Cl)c1: 4.64
CCS(=O)(=O)c1ccc(OC)c(Nc2ncc(-c3cccc(F)c3)o2)c1: 7.35
COc1ccc2ncn(-c3cc(O[C@H](C)c4ccccc4C(F)(F)F)c(C(N)=O)s3)c2c1: 2.16

Query string: // lookup inhibition for Cc1nnc(-c2cccc(-c3ccc(C(=O)NCC4CC4)cc3)c2)o1
Result string: 5.21

Query string: // lookup inhibition for Cc1ccc(-c2cc3c(NC(=O)C4CC4)ncnc3o2)cc1
Result string: 10.7

Query string: // lookup inhibition for CNC(=O)c1cncc(/C=C/c2ccccc2C)c1
Result string: 4.22

Query string: // lookup inhibition for CC(C)c1ccc(-c2cc(-c3c[nH]nc3-c3ccccn3)ccn2)cc1
Result string: 3.08

Query string: // lookup inhibition for NS(=O)(=O)c1ccc(N/N=C2\C(=O)Nc3cccc(CCc4ccncc4)c32)cc1
Result string: 4.47

Query string: // lookup inhibition for CN(C)CCNC(=O)Nc1ccc(N(C)c2ccnc(Nc3ccc(CS(C)(=O)=O)cc3)n2)cc1
Result string: 11.7

Query string: // lookup inhibition for CS(=O)(=O)Nc1ccc(-c2cc(-c3ccccc3)cc(C(N)=O)c2N)cc1
Result string: 2.13

Query string: // lookup inhibition for COc1cc(Nc2ncc(-c3ccccc3)o2)cc(OC)c1
Result string: 4.06

Query string: // lookup inhibition for COc1ccc(-c2nn3ncccc3c2-c2ccnc(Nc3ccc(F)c(F)c3)n2)cc1
Result string: 8.04

Query string: // lookup inhibition for COc1cccc(Nc2nccc(-c3cnn4ncccc34)n2)c1
Result string: 32.3

###

# System tested: Protein kinase C beta type (Homo sapiens) (UniProt P05771);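 note: PKC-beta1 splice variant of the enzyme, figure reported as mean inhibition, measured within the GSK PKIS kinase profiling panel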
# Sequence (P05771 2-671 limits assumed): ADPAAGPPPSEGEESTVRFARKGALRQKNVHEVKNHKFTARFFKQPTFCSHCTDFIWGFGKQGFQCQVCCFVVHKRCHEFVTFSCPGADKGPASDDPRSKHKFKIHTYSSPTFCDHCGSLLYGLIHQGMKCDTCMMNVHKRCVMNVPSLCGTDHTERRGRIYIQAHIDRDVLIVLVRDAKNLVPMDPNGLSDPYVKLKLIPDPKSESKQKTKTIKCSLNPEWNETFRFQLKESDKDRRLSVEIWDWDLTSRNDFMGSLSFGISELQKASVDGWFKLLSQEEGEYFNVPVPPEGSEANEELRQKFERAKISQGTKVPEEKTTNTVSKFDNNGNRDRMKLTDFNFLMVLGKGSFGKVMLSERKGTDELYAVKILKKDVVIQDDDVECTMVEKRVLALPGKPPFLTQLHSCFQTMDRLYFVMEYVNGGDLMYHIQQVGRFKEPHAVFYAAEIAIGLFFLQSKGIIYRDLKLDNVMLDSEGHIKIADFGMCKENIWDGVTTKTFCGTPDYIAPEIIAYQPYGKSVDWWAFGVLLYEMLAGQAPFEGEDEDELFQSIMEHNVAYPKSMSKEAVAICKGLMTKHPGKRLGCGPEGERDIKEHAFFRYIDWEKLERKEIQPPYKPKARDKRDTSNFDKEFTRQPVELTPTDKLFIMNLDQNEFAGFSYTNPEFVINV
# Details: at 0.1 µM
# Description: GSK_PKIS: PKC-beta1 (splice variant) mean inhibition at 0.1 uM [Nanosyn]
Observed property: inhibition (%)
Numbers only; they are read as %.

Example results:
FC(F)(F)CNc1nccc(-c2cnn3ncccc23)n1: 1.27
COc1cc2c(cc1Nc1nc(Nc3cccc(F)c3C(N)=O)c3cc[nH]c3n1)N(C(=O)CN1CCN(C(C)C)CC1)CC2: 0.6
Cc1cc(O)cc(C)c1/C=C/c1cncc(C(=O)OC(C)(C)C)c1: 0.46
COc1ccc(Nc2ncc(-c3ccccc3)o2)cc1OC: -0.02
CNC(=O)c1sc(-n2cnc3cc(OC)c(OC)cc32)cc1OCc1ccccc1C(F)(F)F: 1.29

Now for a further compound.
Query string: // lookup inhibition for CC1(C)CC(n2cnc(-c3ccc(F)cc3)c2-c2ccnc(N)n2)CC(C)(C)N1
Result string: 1.89

###

inhibition by entry:
# System tested: Serine/threonine-protein kinase pim-1 (Homo sapiens) (UniProt P11309)
# Sequence (P11309 whole entry, looked up): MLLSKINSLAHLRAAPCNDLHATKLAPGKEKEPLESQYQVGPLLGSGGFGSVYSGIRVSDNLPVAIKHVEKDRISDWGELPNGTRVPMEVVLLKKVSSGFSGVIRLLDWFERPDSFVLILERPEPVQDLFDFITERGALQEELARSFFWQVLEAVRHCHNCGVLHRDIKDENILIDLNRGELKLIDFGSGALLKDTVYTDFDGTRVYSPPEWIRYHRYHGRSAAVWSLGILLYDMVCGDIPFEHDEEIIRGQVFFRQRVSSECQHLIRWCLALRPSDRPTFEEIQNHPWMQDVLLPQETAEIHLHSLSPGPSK
# Details: at 0.1 µM
Numbers only; they are read as %.

COc1cc2c(cc1Nc1nc(Nc3cccc(F)c3C(N)=O)c3cc[nH]c3n1)N(C(=O)CN1CCN(C(C)C)CC1)CC2: 1.43
O=C(Nc1n[nH]c2nnc(-c3cccnc3)cc12)C1CC1: 26.1
Fc1ccc(Nc2nccc(-c3c(-c4ccc(C(F)(F)F)cc4)nn4ncccc34)n2)cc1F: 1.07
Cn1c(-c2nonc2N)nc2cnccc21: 2.15
O=C(O[C@H]1CN[C@H](C#Cc2cc3ncnc(Nc4ccc5c(ccn5Cc5cc(F)ccc5F)c4)c3s2)C1)N1CCOCC1: 0.84

Now for a further compound.
Query string: // lookup inhibition for COc1cc(Nc2ncc(-c3ccccc3)o2)cc(OC)c1
Result string: 1.14

###

# System tested: Receptor tyrosine-protein kinase erbB-2 (Homo sapiens)
# Details: at 0.1 µM
inhibition by entry:
Numbers only; they are read as %.

Example results:
COc1cc(N2CCN(C(C)C)CC2)ccc1Nc1nc(Nc2cccc3ncccc23)c2cc[nH]c2n1: -0.99
Fc1ccc(Nc2nccc(-c3c(-c4ccc(C(F)(F)F)cc4)nn4ncccc34)n2)cc1F: -0.32
COC(=O)Nc1nc2cc(Oc3ccc(NC(=O)Nc4ccccc4)cc3)ccc2[nH]1: 3.5
CS(=O)(=O)Nc1ccc(-c2ccc3c(NC(=O)C4CC4)n[nH]c3c2)cc1: -0.58

Query string: // map CNC(=O)c1cncc(/C=C/c2ccccc2C)c1 to recorded inhibition (system: Receptor tyrosine-protein kinase erbB-2 (Homo sapiens))
Result string: 2.44

Query string: // map COc1ccc2ncn(-c3cc(O[C@H](C)c4ccccc4C(F)(F)F)c(C(N)=O)s3)c2c1 to recorded inhibition (system: Receptor tyrosine-protein kinase erbB-2 (Homo sapiens))
Result string: -0.36

Query string: // map COc1cccc(-n2ncc3c(N/N=C/c4ccc(C(=O)NCCN(C)C)cc4)ncnc32)c1 to recorded inhibition (system: Receptor tyrosine-protein kinase erbB-2 (Homo sapiens));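 note: each value is the mean percent inhibition of ERBB2 over replicate measurements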
Result string: 0.77

###

# Tested on: Platelet-derived growth factor receptor alpha (Homo sapiens), P16234 [D842V]
# Sequence (P16234 whole entry D842V): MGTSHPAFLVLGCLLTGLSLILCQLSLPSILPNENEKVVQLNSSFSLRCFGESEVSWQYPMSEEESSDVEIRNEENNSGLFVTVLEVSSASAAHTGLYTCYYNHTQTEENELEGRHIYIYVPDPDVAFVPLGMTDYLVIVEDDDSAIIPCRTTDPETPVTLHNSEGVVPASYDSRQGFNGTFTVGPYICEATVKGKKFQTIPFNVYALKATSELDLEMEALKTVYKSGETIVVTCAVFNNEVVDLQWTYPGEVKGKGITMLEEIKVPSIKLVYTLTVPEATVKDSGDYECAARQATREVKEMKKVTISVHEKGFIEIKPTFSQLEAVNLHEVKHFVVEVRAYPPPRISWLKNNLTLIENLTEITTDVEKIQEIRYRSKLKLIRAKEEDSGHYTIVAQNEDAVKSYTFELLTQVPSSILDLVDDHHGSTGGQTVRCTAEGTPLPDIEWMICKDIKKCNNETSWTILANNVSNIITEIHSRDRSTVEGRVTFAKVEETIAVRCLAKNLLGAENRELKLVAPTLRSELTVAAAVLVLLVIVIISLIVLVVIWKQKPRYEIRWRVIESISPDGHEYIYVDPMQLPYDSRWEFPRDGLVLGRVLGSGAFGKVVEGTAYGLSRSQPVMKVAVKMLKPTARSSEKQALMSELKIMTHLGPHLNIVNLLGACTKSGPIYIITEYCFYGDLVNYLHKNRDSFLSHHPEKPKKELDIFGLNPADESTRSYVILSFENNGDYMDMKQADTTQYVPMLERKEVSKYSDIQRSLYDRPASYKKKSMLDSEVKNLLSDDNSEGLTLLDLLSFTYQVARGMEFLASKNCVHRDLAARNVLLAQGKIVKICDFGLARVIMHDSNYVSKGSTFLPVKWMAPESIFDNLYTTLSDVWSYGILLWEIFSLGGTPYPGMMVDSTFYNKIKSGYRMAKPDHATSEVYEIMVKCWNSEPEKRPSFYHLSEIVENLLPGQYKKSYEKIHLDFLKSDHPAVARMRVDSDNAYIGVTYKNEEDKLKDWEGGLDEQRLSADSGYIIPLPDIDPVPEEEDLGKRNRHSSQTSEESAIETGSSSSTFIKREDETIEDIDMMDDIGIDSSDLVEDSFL
# Details: at 1 µM
Observed property: inhibition

Example results:
CN1CCC(n2cnc(-c3ccc(F)cc3)c2-c2ccnc(NCCO)n2)CC1: 8.15%
O=C(O[C@H]1CN[C@H](C#Cc2cc3ncnc(Nc4ccc5c(ccn5Cc5cc(F)ccc5F)c4)c3s2)C1)N1CCOCC1: 3.49%
CS(=O)(=O)CCNCc1ccc(-c2ccc3ncnc(Nc4ccc(OCc5cccc(C(F)(F)F)c5)cc4)c3c2)o1: 1.85%
COc1ccccc1-c1cc(/C=C2\C(=O)Nc3ncc(Br)cc32)cc(Br)c1O: 5.41%
COc1ccc2ncn(-c3cc(O[C@H](C)c4ccccc4C(F)(F)F)c(C(N)=O)s3)c2c1: 24.9%
CCS(=O)(=O)c1ccc(OC)c(Nc2ncc(-c3cccc(C(C)=O)c3)o2)c1: 72.8%

Query string: // lookup inhibition for CC1=C(C(=O)Nc2ccc3[nH]ncc3c2)C(c2ccc(F)cc2)N=C(c2ccc(C(F)(F)F)nc2)N1 (stereo not drawn)
Result string: 3.35%

Query string: // lookup inhibition for O=C(O[C@H]1CN[C@H](C#Cc2cc3ncnc(Nc4ccc5c(cnn5Cc5ccccc5)c4)c3s2)C1)N1CCOCC1
Result string: 3.09%

###

inhibition by entry:
# System tested: Hepatocyte growth factor receptor (Homo sapiens);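 note: reported values are means of MET inhibition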
# Details: at 0.1 µM
Numbers only; they are read as %.

COc1cccc(Nc2nccc(-c3cnn4ncccc34)n2)c1: 3.9

Query string: // lookup inhibition for O=C(O[C@H]1CN[C@H](C#Cc2cc3ncnc(Nc4ccc(OCc5cccc(F)c5)c(Cl)c4)c3s2)C1)N1CCOCC1
Result string: 4.9

Query string: // lookup inhibition for Cc1c2ccc(N(C)c3ccnc(Nc4cccc(S(N)(=O)=O)c4)n3)cc2nn1C
Result string: 10.6

Query string: // lookup inhibition for Cc1ccc(-c2cc3c(NC(=O)C4CC4)ncnc3o2)cc1
Result string: 4.71

Query string: // lookup inhibition for COc1cc(N2CCN(C(C)C)CC2)ccc1Nc1nc(Nc2cccc3ncccc23)c2cc[nH]c2n1
Result string: -2.89

###

# System tested: Activated CDC42 kinase 1 (Homo sapiens) (UniProt Q07912)
# Sequence (Q07912 whole entry, looked up): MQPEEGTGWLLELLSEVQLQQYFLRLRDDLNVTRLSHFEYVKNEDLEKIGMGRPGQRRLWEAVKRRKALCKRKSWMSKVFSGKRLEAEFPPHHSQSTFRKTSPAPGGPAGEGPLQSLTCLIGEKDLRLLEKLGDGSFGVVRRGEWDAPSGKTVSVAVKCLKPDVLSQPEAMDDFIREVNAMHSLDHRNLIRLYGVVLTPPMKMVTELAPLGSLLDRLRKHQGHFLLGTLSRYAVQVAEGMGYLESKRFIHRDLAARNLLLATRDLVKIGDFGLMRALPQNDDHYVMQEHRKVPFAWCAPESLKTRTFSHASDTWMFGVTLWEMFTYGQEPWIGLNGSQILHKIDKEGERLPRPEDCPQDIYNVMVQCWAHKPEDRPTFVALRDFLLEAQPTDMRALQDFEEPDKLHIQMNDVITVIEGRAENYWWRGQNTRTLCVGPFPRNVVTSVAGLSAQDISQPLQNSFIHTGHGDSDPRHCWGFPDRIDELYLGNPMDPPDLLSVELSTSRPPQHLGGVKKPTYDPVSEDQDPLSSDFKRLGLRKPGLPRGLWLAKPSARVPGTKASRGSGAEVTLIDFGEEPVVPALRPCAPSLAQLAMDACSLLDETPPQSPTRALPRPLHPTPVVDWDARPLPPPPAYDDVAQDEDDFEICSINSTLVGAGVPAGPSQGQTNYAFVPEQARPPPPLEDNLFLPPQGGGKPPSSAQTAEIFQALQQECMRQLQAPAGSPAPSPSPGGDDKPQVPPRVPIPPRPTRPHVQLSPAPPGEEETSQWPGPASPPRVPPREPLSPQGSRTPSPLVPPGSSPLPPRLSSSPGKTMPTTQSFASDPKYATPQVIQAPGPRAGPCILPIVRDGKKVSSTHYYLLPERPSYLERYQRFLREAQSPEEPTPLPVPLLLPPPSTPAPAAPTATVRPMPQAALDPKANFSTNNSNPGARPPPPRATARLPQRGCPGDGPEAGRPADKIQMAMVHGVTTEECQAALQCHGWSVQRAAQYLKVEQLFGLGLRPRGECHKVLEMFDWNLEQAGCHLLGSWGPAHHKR
# Details: at 1 µM
# Description: GSK_PKIS: TNK2 mean inhibition at 1 uM [Nanosyn]
inhibition by entry:
Numbers only; they are read as %.

Example results:
NS(=O)(=O)c1cccc(N/C=C2\C(=O)Nc3ccccc32)c1: 1.26
c1cnn2ncc(-c3ccnc(NCCCN4CCOCC4)n3)c2c1: -0.49
COc1cc2c(cc1Nc1nc(Nc3cccc(F)c3C(N)=O)c3cc[nH]c3n1)N(C(=O)CN1CCN(C(C)C)CC1)CC2: 5.91

Query string: // lookup inhibition for N#Cc1cccc(Nc2ncc(-c3ccccc3)o2)c1
Result string: 0.86

Query string: // lookup inhibition for CS(=O)(=O)CCNCc1ccc(-c2ccc3ncnc(Nc4ccc(OCc5ccccc5)cc4)c3c2)o1
Result string: 2.69

Query string: // lookup inhibition for OCCCNc1nccc(-c2c(-c3ccc(F)cc3)nn3cc(C(F)(F)F)ccc23)n1
Result string: 1.57

Query string: // lookup inhibition for c1ccc(-c2n[nH]cc2-c2ccnc(-c3ccc(OCCn4ccnc4)cc3)c2)nc1
Result string: 0.83

Query string: // lookup inhibition for CCOc1ccc2c(-c3ccnc(Nc4cc(OC)cc(C(F)(F)F)c4)n3)cnn2n1
Result string: 1.19

Query string: // lookup inhibition for NS(=O)(=O)c1ccc(N/N=C2\C(=O)Nc3ccc(C(=O)NCc4ccncc4)cc32)cc1
Result string: 2.58

Query string: // lookup inhibition for Fc1cccc(COc2ccc(Nc3ncncc3C#Cc3ccccc3)cc2Cl)c1
Result string: 3.24

###

# System tested: Serine/threonine-protein kinase pim-1 (Homo sapiens);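 note: reported value is the mean inhibition of PIM1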
# Details: at 0.1 µM
Observed property: inhibition (%)
Numbers only; they are read as %.

Example results:
COc1cc(N2CCN(C(C)C)CC2)ccc1Nc1nc(Nc2cccc(F)c2C(=O)O)c2cc[nH]c2n1: -0.13
CCS(=O)(=O)c1ccc(OC)c(Nc2ncc(-c3cccc(F)c3)o2)c1: 1.98
CC1=C(C(=O)Nc2ccc3[nH]ncc3c2)C(c2ccc(F)cc2)N=C(c2ccc(C(F)(F)F)nc2)N1 (stereo not given): 0.3
CN1CCC(n2cnc(-c3ccc(F)cc3)c2-c2ccnc(NCCO)n2)CC1: 0.34
NC(=O)c1ccc2c(-c3ccnc(NCCCO)n3)c(-c3ccc(F)cc3)nn2c1: 1.1
Fc1cccc(COc2ccc(Nc3ncncc3C#Cc3ccccc3)cc2Cl)c1: 0.46
N#Cc1cccc(Nc2ncc(-c3ccccc3)o2)c1: 0.15
FC(F)(F)CNc1nccc(-c2cnn3ncccc23)n1: 0.08

Query string: // lookup inhibition for COC(=O)Nc1nc2ccc(Oc3ccc(NC(=O)Nc4cc(C(F)(F)F)ccc4F)cc3)cc2s1
Result string: 0.9

Query string: // lookup inhibition for COc1cccc(Nc2nccc(-c3cnn4ncccc34)n2)c1
Result string: 0.85
